All values here come from PubChem BioAssay AID1159580.

// normalized growth lookup, one value per entry
- Assay Protocol: chemical genetic growth profiling, strain panel (AID 1159580);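 further: tested at 20 µM; growth read once vehicle control cultures reached saturation at 30 °C; 1 = growth at the plate median or of vehicle wells; lower values mean less growth of the strain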
- Condition Details: S. cerevisiae deletion strains, growth OD, locus YLR357W, strain rsc2, stronger effect = lower value
The campaign covered roughly 5,500 compounds. About 2,000 (36%) were called active. About 18% were inconclusive and are not listed. The list shows a part of the results.
Keep it simple and answer with nothing but the number.

Task: Give me measured normalized growth, please, for this molecule: `CC[C@]12CCCN3CCc4c(n(c5ccccc45)C(=O)C1)[C@@H]32`
Result: 0.994

Task: Give me measured normalized growth, please, for this molecule: `COc1ccc(/C=C/c2cc(O)cc(O)c2)cc1`
Result: 0.95

Task: Give me measured normalized growth, please, for this molecule: `CCOc1ccc2c(c1)C(C)=CC(C)(C)N2`
Result: 0.963

====

- Assay Protocol: chemical genetic growth profiling, strain panel (AID 1159580);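 further: tested at 20 µM; growth read once vehicle control cultures reached saturation at 30 °C; 1 = growth at the plate median or of vehicle wells; lower values mean less growth of the strain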
- Condition Details: S. cerevisiae deletion strains, growth OD, locus YPL051W, strain arl3, stronger effect = lower value
About 2,000 (36%) of roughly 5,500 compounds were called active. Roughly 18% stayed inconclusive and do not appear here. Some of the results follow.
// normalized growth lookup, one value per entry
Keep it simple and answer with nothing but the number.

A selection of reference data follows.
Task: Give me measured normalized growth, please, for this compound: CC[C@@H](C(=O)[C@@H](C)[C@@H](O)[C@H](C)[C@@H]1O[C@@H]([C@@H](CC)C(=O)O)CC[C@@H]1C)[C@H]1OC2(C=C[C@@H](O)[C@]3(CC[C@@](C)([C@H]4CC[C@](O)(CC)[C@H](C)O4)O3)O2)[C@H](C)C[C@@H]1C (stereo partly specified)
Result: 0.721

Task: Give me measured normalized growth, please, for this compound: `CC1=C(/C=C/C(C)=C/C=C/C(C)=C/CO)C(C)(C)CCC1`
Result: 1.04

Task: Give me measured normalized growth, please, for this compound: C[C@@H]1CC2C3CCC4=CC(=O)C=C[C@]4(C)[C@@]3(F)[C@@H](O)C[C@]2(C)[C@@]1(O)C(=O)COP(=O)(O)O (stereo partly specified)
Result: 1.01

Continuing:
Task: Give me measured normalized growth, please, for this compound: CCN(CC)CCOC(=O)C(Cc1cccc2ccccc12)CC1CCCO1 (stereo unspecified)
Result: 1

Task: Give me measured normalized growth, please, for this compound: `CCCN(CCC)CCc1cccc2c1CC(=O)N2`
Result: 0.975

Task: Give me measured normalized growth, please, for this compound: `NC(=O)c1cnccn1`
Result: 0.993

====

- Assay Protocol: chemical genetic growth profiling, strain panel (AID 1159580);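 further: tested at 20 µM; growth read once vehicle control cultures reached saturation at 30 °C; 1 = growth at the plate median or of vehicle wells; lower values mean less growth of the strain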
- Condition Details: S. cerevisiae deletion strains, growth OD, locus YPR025C, strain CCL1, stronger effect = lower value
In all, about 5,500 compounds went through this assay and about 2,000 (36%) were called active. About 18% were inconclusive and are not listed. The list shows a part of the results.
// normalized growth lookup, one value per entry
Keep it simple and answer with nothing but the number.

A selection of reference data follows.
Task: Give me measured normalized growth, please, for this compound: `NC(=NC(=O)c1ccc(Cl)cc1)c1cccs1`
Result: 0.953

Task: Give me measured normalized growth, please, for this compound: `COCCOc1ccccc1NC(=S)SCCSC(=S)Nc1ccccc1OCCOC`
Result: 0.982

Continuing:
Task: Give me measured normalized growth, please, for this compound: `CN(C)/C=C/C(=O)c1ccc(C#Cc2ccccc2)cc1`
Result: 0.977

Task: Give me measured normalized growth, please, for this compound: `CCOC(=O)CCc1cc(N=Cc2cc(Br)ccc2O)c(O)c(N=Cc2cc(Br)ccc2O)c1`
Result: 0.954
